Kindly supply the reported viability, T/C values for the records listed here.
- System: KRAS PDC multicell spheroid viability;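 note: spheroids exposed to compounds for 7 days; 100% = DMSO vehicle control viability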
- assay.explanation: Anticancer human tumor 825966-067-R-J1-PDC patient-derived colon carcinoma cell line growth inhibition [KRAS2]
- condition.parameters: second compound 0.0316 µM; first compound 0.1 µM; active compounds read low
Give your result in % as a bare value.

Exercise: // fetch viability, T/C given entry CC(=O)OC12COC1CC(O)C1(C)C(=O)C(O)C3=C(C)C(OC(=O)C(O)C(NC(=O)OC(C)(C)C)c4ccccc4)CC(O)(C(OC(=O)c4ccccc4)C21)C3(C)C (centres undefined) + C=CC(=O)N1CCN(c2nc(OCC3CCCN3C)nc3c2CCN(c2cccc4cccc(C)c24)C3)CC1CC#N
Key: 23.1

Exercise: // fetch viability, T/C given entry CCNC(=O)CC1N=C(c2ccc(Cl)cc2)c2cc(OC)ccc2-n2c(C)nnc21 (centres undefined) + C=CC(=O)N1CCN(c2nc(OCC3CCCN3C)nc3c2CCN(c2cccc4cccc(C)c24)C3)CC1CC#N
Key: 112

Exercise: // fetch viability, T/C given entry CC1(C)CCC(CN2CCN(c3ccc(C(=O)NS(=O)(=O)c4ccc(NCC5CCOCC5)c([N+](=O)[O-])c4)c(Oc4cnc5[nH]ccc5c4)c3)CC2)=C(c2ccc(Cl)cc2)C1 + C=CC(=O)N1CCN(c2nc(OCC3CCCN3C)nc3c2CCN(c2cccc4cccc(C)c24)C3)CC1CC#N
Key: 96

Exercise: // fetch viability, T/C given entry CC1COCCN1c1cc(-c2ccnn2C)c2ccnc(-c3ccn[nH]3)c2n1 (centres undefined) + C=CC(=O)N1CCN(c2nc(OCC3CCCN3C)nc3c2CCN(c2cccc4cccc(C)c24)C3)CC1CC#N
Key: 69.1
